- Subject Of Test: human TLR7 (Homo sapiens, UniProt Q9NYK1)
- Construct: host or cells: HEK293
- Sequence (Q9NYK1 27-1049): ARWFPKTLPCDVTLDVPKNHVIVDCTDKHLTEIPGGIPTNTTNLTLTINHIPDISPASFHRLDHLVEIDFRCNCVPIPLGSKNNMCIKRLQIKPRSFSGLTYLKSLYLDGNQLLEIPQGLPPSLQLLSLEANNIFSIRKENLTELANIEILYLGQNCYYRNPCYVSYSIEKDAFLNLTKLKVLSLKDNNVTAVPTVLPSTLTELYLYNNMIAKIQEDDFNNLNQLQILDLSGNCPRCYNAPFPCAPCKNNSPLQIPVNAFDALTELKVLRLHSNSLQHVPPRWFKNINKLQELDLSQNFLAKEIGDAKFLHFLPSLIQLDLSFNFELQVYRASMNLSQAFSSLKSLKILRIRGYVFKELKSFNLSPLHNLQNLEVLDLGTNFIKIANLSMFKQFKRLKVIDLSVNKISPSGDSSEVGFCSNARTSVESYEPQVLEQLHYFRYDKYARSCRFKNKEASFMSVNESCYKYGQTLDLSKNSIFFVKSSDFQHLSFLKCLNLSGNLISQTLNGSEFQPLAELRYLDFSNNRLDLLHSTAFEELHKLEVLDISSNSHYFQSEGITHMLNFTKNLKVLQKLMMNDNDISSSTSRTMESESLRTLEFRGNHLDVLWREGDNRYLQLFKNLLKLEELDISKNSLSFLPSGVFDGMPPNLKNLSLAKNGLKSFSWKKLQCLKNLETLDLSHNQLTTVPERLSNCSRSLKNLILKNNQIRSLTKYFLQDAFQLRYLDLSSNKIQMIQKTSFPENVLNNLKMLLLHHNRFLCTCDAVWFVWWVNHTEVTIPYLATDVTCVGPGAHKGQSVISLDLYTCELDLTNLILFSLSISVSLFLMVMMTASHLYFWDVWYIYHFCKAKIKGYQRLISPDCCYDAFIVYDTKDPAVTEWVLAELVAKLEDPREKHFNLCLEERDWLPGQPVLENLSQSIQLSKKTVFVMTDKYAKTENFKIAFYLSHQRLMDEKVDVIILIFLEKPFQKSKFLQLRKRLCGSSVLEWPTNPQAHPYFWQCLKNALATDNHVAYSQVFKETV
- Method Description: hTLR7 agonist reporter assay in HEK293 cells (NFκB-SEAP)
- Assay type: cell-based
- Condition Details: Table 3, FIG. 5, another occasion; * = only very low levels of NFKB activation were detected; read-out: hTLR7 ED50
Measured Property: pEC50
Please keep in mind that pEC50 is minus log10 of the molar concentration; only the number is needed.

For orientation, consider the following solved cases.
CCCCc1nc2c(N)nc3cc(OCCO)ccc3c2n1CCO [Comparative Example 3]
5.66
CCCCCCCC/C=C\CCCCCCCC(=O)OC[C@H](COP(=O)(O)OCCOc1ccc2c(c1)nc(N)c1nc(CCCC)n(CCO)c12)OC(=O)CCCCCCC/C=C\CCCCCCCC [Example 1]
5.39
CCCCc1nc2c(N)nc3ccccc3c2n1CCO [Comparative Example 1, reference compound]
5.96

API: the following record is the query input.
// assay human TLR7 (Homo sapiens, UniProt Q9NYK1), entry CCCCc1nc2c(N)nc3cc(OCCOCCOCCO)ccc3c2n1CCO [Comparative Example 5] , pEC50 value = 4.88
